Where do these numbers come from? They come from ChEMBL document CHEMBL1681640.

molecular target: Melanocortin receptor 5 (Homo sapiens); assay: Agonist activity at human MC5 receptor expressed in BHK cells assessed as stimulation of agonist-induced cAMP accumulation
Sequence (P33032 whole entry): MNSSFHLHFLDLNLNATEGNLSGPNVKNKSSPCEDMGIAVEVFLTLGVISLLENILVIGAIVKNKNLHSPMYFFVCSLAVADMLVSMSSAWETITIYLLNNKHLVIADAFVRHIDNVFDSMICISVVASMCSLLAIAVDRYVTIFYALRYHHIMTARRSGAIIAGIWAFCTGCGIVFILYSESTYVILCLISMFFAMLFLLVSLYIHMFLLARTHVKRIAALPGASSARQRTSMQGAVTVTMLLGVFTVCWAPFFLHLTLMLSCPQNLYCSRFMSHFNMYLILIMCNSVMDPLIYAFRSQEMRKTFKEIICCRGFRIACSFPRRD
pEC50: −log10 of the molar value.
Each record here notes measured pEC50.

COCC(=O)N[C@H]1Cc2cc3c(c(c2)Cc2ccc(cc2)Oc2cccc(c2)CN(CCCN2CCN(CCCN)CC2)C1=O)OCOC3 = < 5.00

Attention now turns to another entry.
Item: "COCC(=O)N[C@H]1Cc2ccc(OC)c(c2)Cc2ccc(cc2)Oc2cccc(c2)CN(CCCN2CCN(CCCN)CC2)C1=O" | pEC50: < 5.00

###

biological target: Melanocortin receptor 3 (Homo sapiens)
Sequence (P41968 whole entry): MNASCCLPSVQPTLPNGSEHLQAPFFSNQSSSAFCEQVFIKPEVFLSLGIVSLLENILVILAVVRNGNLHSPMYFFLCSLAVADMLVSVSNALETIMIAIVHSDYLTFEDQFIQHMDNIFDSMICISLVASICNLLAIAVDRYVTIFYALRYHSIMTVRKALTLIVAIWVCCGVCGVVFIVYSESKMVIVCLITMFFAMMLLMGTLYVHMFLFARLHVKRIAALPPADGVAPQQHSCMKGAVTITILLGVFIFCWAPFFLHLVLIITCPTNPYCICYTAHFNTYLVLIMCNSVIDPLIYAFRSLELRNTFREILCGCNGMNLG
readout-type: Ki (nM)
Kindly provide the numeric value in nM only, without the unit symbol.

Item: "COCC(=O)N[C@H]1Cc2ccc(OC)c(c2)Cc2ccc(cc2)Oc2cccc(c2)CN(CCCN2CCN(CCCN)CC2)C1=O" | Ki: 1180

###

biological target: Melanocyte-stimulating hormone receptor (Homo sapiens); experiment: Agonist activity at human MC1 receptor expressed in BHK cells assessed as stimulation of agonist-induced cAMP accumulation
Sequence (Q01726 whole entry): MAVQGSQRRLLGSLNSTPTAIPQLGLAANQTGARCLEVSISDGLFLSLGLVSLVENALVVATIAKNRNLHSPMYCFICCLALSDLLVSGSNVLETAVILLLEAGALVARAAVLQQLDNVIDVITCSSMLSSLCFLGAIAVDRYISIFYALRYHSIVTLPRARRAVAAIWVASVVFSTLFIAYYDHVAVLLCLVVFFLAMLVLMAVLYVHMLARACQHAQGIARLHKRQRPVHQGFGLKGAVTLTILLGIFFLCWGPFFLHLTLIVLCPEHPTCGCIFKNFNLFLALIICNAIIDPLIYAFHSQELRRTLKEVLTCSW
pEC50: −log10 of the molar value.
readout-type: pEC50

COCC(=O)N[C@H]1Cc2ccc(OC)c(c2)Cc2ccc(cc2)Oc2cccc(c2)CN(CCCN2CCN(CCCN)CC2)C1=O = 7.80
COCC(=O)N[C@H]1Cc2cc3c(c(c2)Cc2ccc(cc2)Oc2cccc(c2)CN(CCCN2CCN(CCCN)CC2)C1=O)OCOC3 = 7.92
